test target: K-Ras G12C(GMP-PNP) binding to BRAF RBD (Homo sapiens (Human), UniProt P01116+P62937, G12C)
Sequence (P01116 other isoform, or with tags, fused parts or gaps G12C): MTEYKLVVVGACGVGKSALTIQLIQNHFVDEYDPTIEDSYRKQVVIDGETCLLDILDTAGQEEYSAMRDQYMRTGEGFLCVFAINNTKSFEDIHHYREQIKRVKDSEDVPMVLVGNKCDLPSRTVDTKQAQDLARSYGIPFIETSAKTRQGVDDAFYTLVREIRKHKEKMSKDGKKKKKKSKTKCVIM
Sequence (P62937 whole entry): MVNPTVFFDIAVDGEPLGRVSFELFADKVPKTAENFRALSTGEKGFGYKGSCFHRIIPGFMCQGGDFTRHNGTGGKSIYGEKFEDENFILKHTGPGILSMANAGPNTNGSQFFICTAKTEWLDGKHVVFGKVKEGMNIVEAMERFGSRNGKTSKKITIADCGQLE
experiment: Disruption of BRAF RBD interaction with K-Ras (FRET / MOA assay), K-Ras G12C
Type: biochemical
stated conditions: read-out: KRAS G12C FRET IC50

>  <compound>
CCn1c(-c2cccnc2[C@H](C)OC)c2c3cc(ccc31)-c1cc(O)cc(c1)C[C@H](NC(=O)[C@H](C(C)C)N(C)C(=O)C13CCC(CO1)C3)C(=O)N1CCC[C@H](N1)C(=O)OCC(C)(C)C2

>  <IC50>
< 10 nM

$$$$
>  <compound>
CCn1c(-c2cccnc2[C@H](C)OC)c2c3cc(ccc31)-c1csc(n1)[C@@H](OCC1CCN(C)CC1)[C@H](NC(=O)[C@H]1C[C@@H]1C)C(=O)N1CCC[C@H](N1)C(=O)OCC(C)(C)C2

>  <IC50>
100 to 1000 nM

$$$$
>  <compound>
CCn1c(-c2cccnc2[C@H](C)OC)c2c3cc(ccc31)-c1csc(n1)C[C@H](NC(=O)[C@H](C(C)C)N(C)C(=O)[C@H]1CCN(S(C)(=O)=O)C1)C(=O)N1CCC[C@H](N1)C(=O)OCC(C)(C)C2

>  <IC50>
10 to 100 nM

$$$$
>  <compound>
CCn1c(-c2cccnc2[C@H](C)OC)c2c3cc(ccc31)-c1csc(n1)C[C@H](NC(=O)[C@H](C(C)C)N(C)C(=O)[C@H]1CCCO1)C(=O)N1CCC[C@H](N1)C(=O)OCC(C)(C)C2

>  <IC50>
10 to 100 nM

$$$$
>  <compound>
CCn1c(-c2cccnc2[C@H](C)OC)c2c3cc(ccc31)-c1csc(n1)C[C@H](NC(=O)[C@H](C(C)C)N(C)C(=O)N1CC[C@H]1CN(C)C)C(=O)N1CCC[C@H](N1)C(=O)OCC(C)(C)C2

>  <IC50>
100 to 1000 nM

$$$$
>  <compound>
CCn1c(-c2cccnc2[C@H](C)OC)c2c3cc(ccc31)-c1cc(O)cc(c1)C[C@H](NC(=O)[C@H](C(C)C)N(C)C(=O)C1CCC3(CCOC3)O1)C(=O)N1CCC[C@H](N1)C(=O)OCC(C)(C)C2 (stereo partly shown)

>  <IC50>
100 to 1000 nM

$$$$
>  <compound>
CCOC1c2nc(cs2)-c2ccc3c(c2)c(c(-c2cc(C4CC5COCC(C4)N5C4CC4)cnc2C(C)OC)n3CC)CC(C)(C)COC(=O)C2CCCN(N2)C(=O)C1NC(=O)C1C(C)C1C (stereo not shown)

>  <IC50>
100 to 1000 nM

$$$$

====

test target: KRAS WT (Homo sapiens (Human), UniProt P01116+P62937)
Sequence (P01116 other isoform, or with tags, fused parts or gaps, one chain of several): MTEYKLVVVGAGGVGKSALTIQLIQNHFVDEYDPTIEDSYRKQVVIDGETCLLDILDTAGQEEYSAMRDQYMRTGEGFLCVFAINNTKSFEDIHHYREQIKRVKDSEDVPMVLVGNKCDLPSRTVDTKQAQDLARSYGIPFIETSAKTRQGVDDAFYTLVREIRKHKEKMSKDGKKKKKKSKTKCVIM
experiment: Ras-Raf disruption/FRET/MOA assay (BRAF RBD, Cyclophilin A)
Format: biochemical
stated conditions: read-out: KRAS WT FRET data IC50
pIC50: −log10 of the molar value.

>  <structure string>
CCn1c(-c2cccnc2COC)c2c3cc(ccc31)-c1cc(O)cc(c1)C[C@H](NC(=O)[C@H](C(C)C)N(C)C(=O)OC1COC1)C(=O)N1CCC[C@H](N1)C(=O)OCC(C)(C)C2

>  <test target>
KRAS WT (Homo sapiens (Human), UniProt P01116+P62937)

>  <pIC50>
6.00 to 7.00

$$$$
>  <structure string>
CCn1c(-c2cccnc2[C@H](C)OC)c2c3cc(ccc31)-c1cccc(c1)C[C@H](NC(=O)[C@H](C(C)C)N(C)C(=O)[C@H]1OCC[C@H]1c1ccccc1)C(=O)N1CCC[C@H](N1)C(=O)OCC(C)(C)C2

>  <test target>
KRAS WT (Homo sapiens (Human), UniProt P01116+P62937)

>  <pIC50>
5.00 to 6.00

$$$$
>  <structure string>
CCn1c(-c2cccnc2[C@H](C)OC)c2c3cc(ccc31)-c1cc(O)cc(c1)C[C@H](NC(=O)[C@H](C(C)C)N(C)C(=O)[C@H]1CCCC[C@@H]1N)C(=O)N1CCC[C@H](N1)C(=O)OCC(C)(C)C2

>  <test target>
KRAS WT (Homo sapiens (Human), UniProt P01116+P62937)

>  <pIC50>
6.00 to 7.00

$$$$
>  <structure string>
CCn1c(-c2cccnc2[C@H](C)OC)c2c3cc(ccc31)-c1cc(O)cc(c1)C[C@H](NC(=O)[C@H](C(C)C)N(C)C(=O)[C@H]1CCN(C(=O)[C@@H]3CCCN3)C1)C(=O)N1CCC[C@H](N1)C(=O)OCC(C)(C)C2

>  <test target>
KRAS WT (Homo sapiens (Human), UniProt P01116+P62937)

>  <pIC50>
7.00 to 8.00

$$$$
>  <structure string>
CCn1c(-c2cccnc2[C@H](C)OC)c2c3cc(ccc31)-c1cc(O)cc(c1)C[C@H](NC(=O)[C@H](C(C)C)N(C)C(=O)[C@H]1CCN(C(=O)CCc3ccccc3)C1)C(=O)N1CCC[C@H](N1)C(=O)OCC(C)(C)C2

>  <test target>
KRAS WT (Homo sapiens (Human), UniProt P01116+P62937)

>  <pIC50>
6.00 to 7.00

$$$$
>  <structure string>
CCn1c(-c2cccnc2[C@H](C)OC)c2c3cc(ccc31)-c1csc(n1)C[C@H](NC(=O)[C@H](C(C)C)N(C)C(=O)N1CCO[C@@H](c3ccccc3)C1)C(=O)N1CCC[C@H](N1)C(=O)OCC(C)(C)C2

>  <test target>
KRAS WT (Homo sapiens (Human), UniProt P01116+P62937)

>  <pIC50>
7.00 to 8.00

$$$$
>  <structure string>
CCn1c(-c2cccnc2[C@H](C)OC)c2c3cc(ccc31)-c1csc(n1)C[C@H](NC(=O)[C@H](C(C)C)N(C)C(=O)N1CCO[C@@H](CN(C)C)C1)C(=O)N1CCC[C@H](N1)C(=O)OCC(C)(C)C2

>  <test target>
KRAS WT (Homo sapiens (Human), UniProt P01116+P62937)

>  <pIC50>
6.00 to 7.00

$$$$
>  <structure string>
CCN(C)C(=O)N(C)[C@H](C(=O)N[C@H]1Cc2nc(cs2)-c2ccc3c(c2)c(c(-c2cccnc2[C@H](C)OC)n3CC)CC(C)(C)COC(=O)[C@@H]2CCCN(N2)C1=O)C(C)C

>  <test target>
KRAS WT (Homo sapiens (Human), UniProt P01116+P62937)

>  <pIC50>
7.00 to 8.00

$$$$
>  <structure string>
CCn1c(-c2cnccc2COC)c2c3cc(ccc31)-c1cc(O)cc(c1)C[C@H](NC(=O)[C@H](C(C)C)N(C)C(=O)N1CCNCC1)C(=O)N1CCC[C@H](N1)C(=O)OCC(C)(C)C2

>  <test target>
KRAS WT (Homo sapiens (Human), UniProt P01116+P62937)

>  <pIC50>
6.00 to 7.00

$$$$
>  <structure string>
CCn1c(-c2cccnc2[C@H](C)OC)c2c3cc(ccc31)-c1csc(n1)C[C@H](NC(=O)[C@H](C(C)C)N(C)C(=O)N1CCN(C(C)=O)CC1)C(=O)N1CCC[C@H](N1)C(=O)OCC(C)(C)C2

>  <test target>
KRAS WT (Homo sapiens (Human), UniProt P01116+P62937)

>  <pIC50>
7.00 to 8.00

$$$$
>  <structure string>
CCn1c(-c2cccnc2[C@H](C)OC)c2c3cc(ccc31)-c1cc(O)cc(c1)C[C@H](NC(=O)[C@H](C(C)C)N1CNCC1=O)C(=O)N1CCC[C@H](N1)C(=O)OCC(C)(C)C2

>  <test target>
KRAS WT (Homo sapiens (Human), UniProt P01116+P62937)

>  <pIC50>
6.00 to 7.00

$$$$
